Just for reference, patent EP0227941A1 is where these values come from.

test-system: Synaptosomen-Aufnahme von Serotonin (Rattus norvegicus)
Construct: Durch differentielle Zentrifugation wurden Synaptosomen erhalten; from tissue; host or cells: rat brain cortex synaptosomes
Sequence (P31652 whole entry): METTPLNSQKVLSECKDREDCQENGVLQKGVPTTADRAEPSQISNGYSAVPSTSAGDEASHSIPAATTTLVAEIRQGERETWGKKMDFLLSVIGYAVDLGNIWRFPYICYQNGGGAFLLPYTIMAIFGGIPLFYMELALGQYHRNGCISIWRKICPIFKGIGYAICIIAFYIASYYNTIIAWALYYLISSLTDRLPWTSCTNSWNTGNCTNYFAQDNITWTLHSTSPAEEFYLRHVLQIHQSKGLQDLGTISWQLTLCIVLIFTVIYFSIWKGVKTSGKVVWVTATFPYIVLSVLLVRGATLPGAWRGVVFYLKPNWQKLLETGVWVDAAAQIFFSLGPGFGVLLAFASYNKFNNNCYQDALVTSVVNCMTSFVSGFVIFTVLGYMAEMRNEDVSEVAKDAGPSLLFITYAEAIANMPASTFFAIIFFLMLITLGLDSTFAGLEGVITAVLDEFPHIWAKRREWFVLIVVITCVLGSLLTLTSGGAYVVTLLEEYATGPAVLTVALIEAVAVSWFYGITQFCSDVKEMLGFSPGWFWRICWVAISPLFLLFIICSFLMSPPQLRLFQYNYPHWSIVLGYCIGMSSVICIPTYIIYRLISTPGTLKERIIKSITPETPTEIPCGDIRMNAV
test-description: Inhibition of serotonin uptake in rat brain synaptosomes (cortex, 3H-serotonin)
Type: biochemical, Ratten
measurement-setup: Quotient IC50 Referenzverbindung / IC50 Beispielverbindung
Assignment: determine reported Hemmung der Synaptosomen-Aufnahme von Serotonin r.W. (relative Wirksamkeit) for the given compounds.
When you answer, write just the number.

Task: // Input: N=c1ccn(-c2ccc(C(F)(F)F)cc2)nc1 [Beispiel 32] . Output its Hemmung der Synaptosomen-Aufnahme von Serotonin r.W. (relative Wirksamkeit) only.
Output: 16.6

Task: // Input: Cc1ccc(-n2ccc(=N)cn2)cc1Br [Beispiel 13] . Output its Hemmung der Synaptosomen-Aufnahme von Serotonin r.W. (relative Wirksamkeit) only.
Output: 73.0

Task: // Input: Br.Cc1ccc(-n2ccc(=N)cn2)cc1 [Beispiel 5] . Output its Hemmung der Synaptosomen-Aufnahme von Serotonin r.W. (relative Wirksamkeit) only.
Output: 1.4

Task: // Input: Cc1cc(-n2ccc(=N)cn2)ccc1Br [Beispiel 46] . Output its Hemmung der Synaptosomen-Aufnahme von Serotonin r.W. (relative Wirksamkeit) only.
Output: 103

---

test-system: Monoaminoxidase Typ B (Rattus norvegicus, UniProt P19643)
Construct: Die Bestimmung der Monoaminoxidase erfolgte in verdünntem Rattenhirnhomogenat; from tissue; host or cells: rat brain homogenate
test-description: Inhibition of monoamine oxidase type B in rat brain homogenate (14C-phenylethylamine)
Assay type: biochemical, Ratten
measurement-setup: Quotient IC50 Referenzverbindung / IC50 Beispielverbindung
Description: Hemmung der Monoaminoxidase Die Bestimmung der Monoaminoxidase erfolgte in verdünntem Rattenhirnhomogenat dem 1. unterschiedliche Konzentrationen der zu prüfenden Testsubstanzen und 2. für die Bestimmung der Monoaminoxidase Typ A ¹⁴C-Tryptamin in einer Konzentration von 0,4 µmol, zur Bestimmung der Monoaminoxidase Typ B ¹⁴C-Phenylethylamin in einer Konzentration von 0,25 µmol zugesetzt wurde. Dieser Ansatz wurde 20 Minuten bei 37°C inkubiert. […]
Note that class boundaries on Hemmung der Monoaminoxidase Typ B r.W. (relative Wirksamkeit) are LOW = under 10, MID = from 10 up to 20, HIGH = 20 and over

Task: Could you place "N=c1ccn(-c2ccc(Br)c(Br)c2)nc1" in its proper category? Many thanks.
Output: HIGH

Task: Could you place "N=c1ccn(-c2ccc(C(F)(F)F)c(Cl)c2)nc1" in its proper category? Many thanks.
Output: HIGH

Task: Could you place "COc1cc(-n2ccc(=N)cn2)ccc1C.Cl" in its proper category? Many thanks.
Output: LOW

Task: Could you place "Cc1cc(-n2ccc(=N)cn2)ccc1Br" in its proper category? Many thanks.
Output: MID

Task: Could you place "Br.Cc1ccc(-n2ccc(=N)cn2)cc1" in its proper category? Many thanks.
Output: LOW

Task: Could you place "Cc1ccc(-n2ccc(=N)cn2)cc1F" in its proper category? Many thanks.
Output: LOW

Task: Could you place "Cc1ccc(-n2ccc(=N)cn2)cc1Cl" in its proper category? Many thanks.
Output: HIGH

Task: Could you place "N=c1ccn(-c2ccc(Br)cc2)nc1" in its proper category? Many thanks.
Output: LOW

Task: Could you place "N=c1ccn(-c2ccc(Cl)c(Br)c2)nc1" in its proper category? Many thanks.
Output: MID

Task: Could you place "N=c1ccn(-c2ccc(Cl)c(Cl)c2)nc1" in its proper category? Many thanks.
Output: MID

Task: Could you place "Cc1ccc(-n2ccc(=N)cn2)cc1Br" in its proper category? Many thanks.
Output: HIGH

---

Assignment: determine reported Hemmung der Monoaminoxidase Typ B r.W. (relative Wirksamkeit) for the given molecules.
test-system: Monoaminoxidase Typ B (Rattus norvegicus, UniProt P19643)
Construct: Die Bestimmung der Monoaminoxidase erfolgte in verdünntem Rattenhirnhomogenat; from tissue; host or cells: rat brain homogenate
Sequence (P19643 1-520): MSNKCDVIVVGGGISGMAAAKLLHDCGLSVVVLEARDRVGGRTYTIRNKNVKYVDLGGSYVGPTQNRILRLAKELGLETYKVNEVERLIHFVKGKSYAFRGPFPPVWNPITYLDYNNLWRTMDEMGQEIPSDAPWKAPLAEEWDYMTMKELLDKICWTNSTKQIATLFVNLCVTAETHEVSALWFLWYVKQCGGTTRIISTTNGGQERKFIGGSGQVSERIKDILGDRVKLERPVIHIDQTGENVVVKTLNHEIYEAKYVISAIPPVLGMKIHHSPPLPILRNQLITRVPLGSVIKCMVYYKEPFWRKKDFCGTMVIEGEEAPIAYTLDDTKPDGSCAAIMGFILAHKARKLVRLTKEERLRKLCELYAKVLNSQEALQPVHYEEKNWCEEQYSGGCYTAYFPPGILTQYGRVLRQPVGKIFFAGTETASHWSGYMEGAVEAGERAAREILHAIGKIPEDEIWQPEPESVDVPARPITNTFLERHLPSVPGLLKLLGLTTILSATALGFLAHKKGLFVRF
test-description: Inhibition of monoamine oxidase type B in rat brain homogenate (14C-phenylethylamine)
Assay type: biochemical, Ratten
measurement-setup: Quotient IC50 Referenzverbindung / IC50 Beispielverbindung
When you answer, write just the number.

Task: System Monoaminoxidase Typ B (Rattus norvegicus, UniProt P19643). Read-out Hemmung der Monoaminoxidase Typ B r.W. (relative Wirksamkeit). Item N=c1ccn(-c2ccc(C(F)(F)F)cc2)nc1 [Beispiel 32] . Report value.
Output: 12.2

Task: System Monoaminoxidase Typ B (Rattus norvegicus, UniProt P19643). Read-out Hemmung der Monoaminoxidase Typ B r.W. (relative Wirksamkeit). Item CCc1ccc(-n2ccc(=N)cn2)cc1.Cl [Beispiel 7] . Report value.
Output: 32.7

Task: System Monoaminoxidase Typ B (Rattus norvegicus, UniProt P19643). Read-out Hemmung der Monoaminoxidase Typ B r.W. (relative Wirksamkeit). Item N=c1ccn(-c2ccc(Br)c(Cl)c2)nc1 [Beispiel 17] . Report value.
Output: 19.0

Task: System Monoaminoxidase Typ B (Rattus norvegicus, UniProt P19643). Read-out Hemmung der Monoaminoxidase Typ B r.W. (relative Wirksamkeit). Item Cc1cc(-n2ccc(=N)cn2)ccc1Cl [Beispiel 45] . Report value.
Output: 9.8

---

test-system: Synaptosomen-Aufnahme von Serotonin (Rattus norvegicus)
Construct: Durch differentielle Zentrifugation wurden Synaptosomen erhalten; from tissue; host or cells: rat brain cortex synaptosomes
test-description: Inhibition of serotonin uptake in rat brain synaptosomes (cortex, 3H-serotonin)
Assay type: biochemical, Ratten
measurement-setup: rat cortex synaptosomes, 3H-Serotonin ca. 10 nM, 37°C; read-out: Hemmung der Synaptosomen-Aufnahme von Serotonin IC50
Assignment: determine reported pIC50 for the given compounds.
Remember, pIC50 is on a log scale: it is -log10 of the molar concentration.

Task: // Input: "Cc1ccc(-n2ccc(=N)cn2)cc1Cl" . Output its pIC50 only.
Output: 7.70

Task: // Input: "Cc1cc(-n2ccc(=N)cn2)ccc1Cl" . Output its pIC50 only.
Output: 7.74

Task: // Input: "N=c1ccn(-c2ccc(Br)cc2)nc1" . Output its pIC50 only.
Output: 7.89

Task: // Input: "N=c1ccn(-c2ccc(Br)c(Br)c2)nc1" . Output its pIC50 only.
Output: 8.55

Task: // Input: "N=c1ccn(-c2ccc(Cl)c(Cl)c2)nc1" . Output its pIC50 only.
Output: 8.19

Task: // Input: "N=c1ccn(-c2ccc(Br)c(Cl)c2)nc1" . Output its pIC50 only.
Output: 8.41

Task: // Input: "Cc1cc(-n2ccc(=N)cn2)ccc1Br" . Output its pIC50 only.
Output: 8.15

Task: // Input: "Cc1ccc(-n2ccc(=N)cn2)cc1F" . Output its pIC50 only.
Output: 7.00

Task: // Input: "N=c1ccn(-c2ccc(Cl)c(Br)c2)nc1" . Output its pIC50 only.
Output: 8.17

Task: // Input: "N=c1ccn(-c2ccc(C(F)(F)F)cc2)nc1" . Output its pIC50 only.
Output: 7.36

Task: // Input: "N=c1ccn(-c2ccc(C(F)(F)F)c(Cl)c2)nc1" . Output its pIC50 only.
Output: 8.06

Task: // Input: "Cc1ccc(-n2ccc(=N)cn2)cc1Br" . Output its pIC50 only.
Output: 8.00

---

Assignment: determine reported Hemmung der Synaptosomen-Aufnahme von Noradrenalin r.W. (relative Wirksamkeit) for the given compounds.
test-system: Synaptosomen-Aufnahme von Noradrenalin (Rattus norvegicus, UniProt Q63380)
Construct: Durch differentielle Zentrifugation wurden Synaptosomen erhalten; from tissue; host or cells: rat brain hippocampus synaptosomes
Sequence (Q63380 1-617): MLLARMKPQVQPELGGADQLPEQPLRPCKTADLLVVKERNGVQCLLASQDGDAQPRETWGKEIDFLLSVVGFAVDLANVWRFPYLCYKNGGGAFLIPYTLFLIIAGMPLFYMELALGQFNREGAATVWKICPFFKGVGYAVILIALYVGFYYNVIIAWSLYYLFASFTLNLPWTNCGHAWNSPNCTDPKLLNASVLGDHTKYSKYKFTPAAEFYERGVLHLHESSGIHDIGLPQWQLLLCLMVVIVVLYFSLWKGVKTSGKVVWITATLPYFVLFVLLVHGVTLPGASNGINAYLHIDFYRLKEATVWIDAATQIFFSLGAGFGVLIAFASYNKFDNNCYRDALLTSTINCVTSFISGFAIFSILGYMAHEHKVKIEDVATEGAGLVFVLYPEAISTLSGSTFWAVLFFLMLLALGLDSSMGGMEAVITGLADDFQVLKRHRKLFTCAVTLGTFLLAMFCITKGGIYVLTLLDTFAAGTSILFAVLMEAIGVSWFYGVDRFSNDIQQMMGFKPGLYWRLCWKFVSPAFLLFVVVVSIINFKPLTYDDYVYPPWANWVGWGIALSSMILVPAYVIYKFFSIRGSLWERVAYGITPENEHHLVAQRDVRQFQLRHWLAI
test-description: Inhibition of noradrenaline uptake in rat brain synaptosomes (hippocampus, 3H-noradrenaline)
Type: biochemical, Ratten
measurement-setup: Quotient IC50 Referenzverbindung / IC50 Beispielverbindung

Task: System Synaptosomen-Aufnahme von Noradrenalin (Rattus norvegicus, UniProt Q63380). Read-out Hemmung der Synaptosomen-Aufnahme von Noradrenalin r.W. (relative Wirksamkeit). Item "N=c1ccn(-c2ccc(Br)c(Cl)c2)nc1" . Report value.
Output: 6.5

Task: System Synaptosomen-Aufnahme von Noradrenalin (Rattus norvegicus, UniProt Q63380). Read-out Hemmung der Synaptosomen-Aufnahme von Noradrenalin r.W. (relative Wirksamkeit). Item "N=c1ccn(-c2ccc(C(F)(F)F)c(Cl)c2)nc1" . Report value.
Output: 0.4

Task: System Synaptosomen-Aufnahme von Noradrenalin (Rattus norvegicus, UniProt Q63380). Read-out Hemmung der Synaptosomen-Aufnahme von Noradrenalin r.W. (relative Wirksamkeit). Item "N=c1ccn(-c2ccc(Br)c(Br)c2)nc1" . Report value.
Output: 6.1

Task: System Synaptosomen-Aufnahme von Noradrenalin (Rattus norvegicus, UniProt Q63380). Read-out Hemmung der Synaptosomen-Aufnahme von Noradrenalin r.W. (relative Wirksamkeit). Item "N=c1ccn(-c2ccc(Br)cc2)nc1" . Report value.
Output: 0.9
